Assay: Multiple oral dose pharmacokinetics in patients with SCI (Example 3)
Conditions: both sexes, human, in vivo, po, 60 mg
Procedure: This example details the plasma concentration of different dosage tablets of a aminopyridine in compositions of the present invention administered to patients with spinal cord injury. Pharmacokinetic results are presented for the subset of 11 patients who completed all dose levels. […] The time of the peak and the plasma elimination half-lives were independent of dose. […] The […] of fampridine ranged from 5.7 to 6.9 hours. There were no apparent differences between males and females.
parameter: Cmax (ng/mL)
Enter your answer as a number in ng/mL; do not include the unit.

Query :: Could you tell me which Cmax is on file for Nc1ccncc1 ?
Result :: 152

# credit: patent US11786514B2
